Experiment: Toxicokinetics in 13-week topical ocular rabbit study
Details: male, New Zealand White, in vivo, topical or ocular, 50 mg/mL/occasion, male rabbits, 50 mg/mL, 6 daily doses, Day 1, after the first daily dose

| Compound | Cmax / ng/mL |
| --- | --- |
| Cc1ccccc1OCC(=O)N[C@@H](CC(C)C)C(=O)N[C@@H](Cc1ccc(OC(=O)N2CCC(C(N)=O)CC2)cc1)C(=O)O [GW559090] | 105 |

====

Assay: Toxicokinetics in 13-week topical ocular rabbit study
Conditions: male, New Zealand White, in vivo, topical or ocular, 50 mg/mL/occasion, male rabbits, 50 mg/mL, 6 daily doses, Week 4, read-out: AUC0-24
Method: GW559090A was given to New Zealand White Rabbits by topical ocular administration for 13 weeks. Animals were dosed six or twelve times per day, with one hour between doses. Treatment groups were: (1) vehicle (12 times a day), (2) 30 mg/mL/occasion given six times a day, (3) 50 mg/mL/occasion given six times a day, or (4) 50 mg/mL/occasion, given 12 times a day. […]
Measurement Name: AUC(0-t) (ng·h/mL)

| Compound | Measurement Name | Unit Of Measure | Observed Result |
| --- | --- | --- | --- |
| Cc1ccccc1OCC(=O)N[C@@H](CC(C)C)C(=O)N[C@@H](Cc1ccc(OC(=O)N2CCC(C(N)=O)CC2)cc1)C(=O)O [GW559090] | AUC(0-t) | ng·h/mL | 107 |

====

Assay: Toxicokinetics in 13-week topical ocular dog study
Settings: male, beagle, in vivo, topical or ocular, 50 mg/mL/occasion, male dogs, 50 mg/mL, 6 daily doses, Day 1, read-out: AUC0-1
Measurement Name: AUC(0-t)

| Structure Notation | Measurement Name | Observed Result |
| --- | --- | --- |
| Cc1ccccc1OCC(=O)N[C@@H](CC(C)C)C(=O)N[C@@H](Cc1ccc(OC(=O)N2CCC(C(N)=O)CC2)cc1)C(=O)O | AUC(0-t) | 18.4 ng·h/mL |

====

Test: Toxicokinetics in 13-week topical ocular rabbit study
Conditions: male, New Zealand White, in vivo, topical or ocular, 30 mg/mL/occasion, male rabbits, 30 mg/mL, 6 daily doses, Day 1, after the first daily dose

| Structure Notation | Cmax / ng/mL |
| --- | --- |
| Cc1ccccc1OCC(=O)N[C@@H](CC(C)C)C(=O)N[C@@H](Cc1ccc(OC(=O)N2CCC(C(N)=O)CC2)cc1)C(=O)O | 30.8 |

====

Assay: Toxicokinetics in 13-week topical ocular rabbit study
Conditions: male, New Zealand White, in vivo, topical or ocular, 50 mg/mL/occasion, male rabbits, 50 mg/mL, 6 daily doses, Day 1, read-out: AUC0-24

| Structure Notation | AUC(0-t) [ng·h/mL] |
| --- | --- |
| Cc1ccccc1OCC(=O)N[C@@H](CC(C)C)C(=O)N[C@@H](Cc1ccc(OC(=O)N2CCC(C(N)=O)CC2)cc1)C(=O)O | 86.4 |

====

Assay: Toxicokinetics in 13-week topical ocular rabbit study
Conditions: female, New Zealand White, in vivo, topical or ocular, 30 mg/mL/occasion, female rabbits, 30 mg/mL, 6 daily doses, Week 4, after the first daily dose

| Structure Notation | Cmax [ng/mL] |
| --- | --- |
| Cc1ccccc1OCC(=O)N[C@@H](CC(C)C)C(=O)N[C@@H](Cc1ccc(OC(=O)N2CCC(C(N)=O)CC2)cc1)C(=O)O | 32.4 |
